- Test system: MS2 coat protein
- experiment: apparent Kd, MS2 coat protein; higher = weaker binding; RNA-MaP array; FMN 200 µM where present
- protocol_conditions: ligand present: flavin mononucleotide; designed as: OFF switch for flavin mononucleotide
property_measured: apparent Kd (nM)
Answer with a number only, understood to be in nM.

Solved cases (4 shown):
monomer_sequence	apparent Kd (nM)
GAGCUCGAUGAGAAGGGUUACAUGAGGAUCACCCAUGUCGACCUUGGCGUAACAGGAUAUCAUCGGGCUCAGUGCGUUGACACA	171
GGAUAGGACAGAGGAUAUACAGAUAGGAUCUACUAUCAAACAGUCCUUACAUGAGGAUCACCCAUGUAGAAGGCUGUCCUAUCG	87.4
UUUCGGCAUGUAGGAUAUGGAUCCGAUUAGGAUUUAGAAGGACAUGAGGAUCACCCAUGUGCAUUUAAUUGGUCAUUACCGUUU	95.2
UCAUGUUAGCAGGAUAUGCUAUUUAUUUUUUAUGCAGAAGGGCUUACAUGAGGAUCACCCAUGUGUUAGGUUUU	21.1

For the sequence "UUUAUGUCAGGAUAUACAUGAGGAUCACCCAUGUAUAUCUUAAAGUAUACAUGGAAAUGUAGAAGGGACGUCCU" , what apparent Kd is on record? 17.1

###

Catalogue of apparent Kd readings, one per entry.
- Test system: MS2 coat protein
- experiment: apparent Kd, MS2 coat protein; higher = weaker binding; RNA-MaP array; FMN 200 µM where present
- protocol_conditions: designed as: OFF switch for flavin mononucleotide; no ligand
Form entry: value (nM) — number only.

See these solved cases before continuing.
monomer_sequence	unit_string	apparent Kd
GGCGGGCGGGAGGAUAUUCGGGCUGUUUGGCUUGGAGAAGGCUCGACAUGAGGAUCACCCAUGUUUGGGUCGCC	nM	16.2
AAACCACAUGAGGAUCACCCAUGUGAGGAUAUGAUACUAUGUACUUCGGUACAUAGUAUCAGAAGGCAUAUGAA	nM	24.6
GUCAGCUCGUGAGGAUAUACAACACUGCUUCGGGAGUGUAUUAAGAUCACAUGAGGAUCACCCAUGUAGAAGGCACGAGCUGAU	nM	15
CCACAGAUAGGAUAUACUGGGUGGGAUAAAUAUUUCCUGUGACAUGAGGAUCACCCAUGUAGAAGGAUCACAAG	nM	38.2
UAUAUAUAGUAAGGAUAUGUAUUAAUUCUAUAAACAGAAGGUACUGACAUGAGGAUCACCCAUGUUUUAGUGUGGGCAUGUAGA	nM	49.3

Identify the measured apparent Kd of "AAAAGGCUAGGAUAUACAUGAGGAUCACCCAUGUGAGGGCACGGCCGGCGCGGGCCCGGUAGAAGGAGUCAAAA" for MS2 coat protein. 18.4

apparent Kd of "UUUAUGUCAGGAUAUACAUGAGGAUCACCCAUGUAUAUCUUAAAGUAUACAUGGAAAUGUAGAAGGGACGUCCU" on MS2 coat protein? 15.1

Param readout = apparent Kd; param system = MS2 coat protein; param query = "AUAAUUUUAUAUAUCUUAUUUAUCAGAAGGCAUAACAUGAGGAUCACCCAUGUAUAUUAUAGUUAUGAGGAUAUGAUUUAGUUA" ; response: value 8.04

Recall the recorded apparent Kd for "GUCCUACAUGAGGAUCACCCAUGUCAGGAUAUGUAGCGUCCGGGCCAUAAGGCUCGGAGCAGAAGGGACAGGUG" with MS2 coat protein and state it. 13.8

MS2 coat protein / apparent Kd / "AAAAUGUCAGGAUAUGCGAAGGCGUCUGACGGACGAGGAUUGCAGAAGGGACAUGAGGAUCACCCAUGUAAAAA" : value? 54.5

Lab note: need apparent Kd with MS2 coat protein for entry "CCAAUGUAAGGAUAUGACAAUGGUAUCUUCGGAUACCAUUGUCAGAAGGUACAUGAGGAUCACCCAUGUAUAAA" , please look it up. 18.7

###

Reported apparent Kd is given for each of the following sequences.
- Test system: MS2 coat protein
- experiment: apparent Kd, MS2 coat protein; higher = weaker binding; RNA-MaP array; FMN 200 µM where present
- protocol_conditions: ligand present: flavin mononucleotide; designed as: OFF switch for flavin mononucleotide
Supply the numeric figure in nM, leaving out any unit text.

monomer_sequence	property_measured	recorded_measurement
UUGUGCUGAGAGAAGGUUCAAACUACAUAUUGCGCACAUGAGGAUCACCCAUGUUGGUGAAUAAGAAAGGAUAUUUUACUGUAU	apparent Kd	184

Fill in: apparent Kd of "AAAAGGCUAGGAUAUACAUGAGGAUCACCCAUGUGAGGGCACGGCCGGCGCGGGCCCGGUAGAAGGAGUCAAAA" is ___ 17.6

Using the record for "UGAUAGGACAGAGGAUAUACAGAUAGGAUCUACUAUCAAACAGUCCUGACAUGAGGAUCACCCAUGUAGAAGGCUGUCCUAUCU" , report its apparent Kd. 98.8

What measured apparent Kd goes with "UCCUUGUCCUGAGGAUAUCCGCGGUUCCCAAAAGGAGAAGGCAGGACAUGAGGAUCACCCAUGUACCCAGAGAACGUGCAGAGU" ? 129

Entry "CGUUGUGAAGAGGAUAUCCAACAAAGUUGUCAAGGAGAAGGCUUCACAUGAGGAUCACCCAUGUUAUGCCUUAU" : reported apparent Kd = ? 80.2

I'd like to know its apparent Kd. The sequence in question is "CUGGUUGUCGAGGAUAUGUCCCGGCUCGCUGACGCAGAAGGCGACACAUGAGGAUCACCCAUGUCGGUUCGCGU" 21.8

Look up apparent Kd: "UUCACGUCAGGAUAUCCAUAUUUCCGAAAUAACGGUACUUUGGAGAAGGGACAUGAGGAUCACCCAUGUCCUCG" 40.1

Query (sequence): "AAAGCACGAGGAUAUACAUGAGGAUCACCCAUGUAUAACCAACAUAGGUGAUCCUCAUGUAGAAGGCGUGCAAA" ; field requested: apparent Kd 18.4

// returns reported apparent Kd for input "GUCAGCUCGUGAGGAUAUACAACACUGCUUCGGGAGUGUAUUAAGAUCACAUGAGGAUCACCCAUGUAGAAGGCACGAGCUGAU" 254

Entry "UCACGGUAUGUAGGAUAUGCAUAGCAUUGCUAUGCAGAAGGACAUGAGGAUCACCCAUGUAUGUAUUCCAUACUAAUCCCGUGU" : reported apparent Kd = ? 6.09

###

- Test system: MS2 coat protein
- experiment: apparent Kd, MS2 coat protein; higher = weaker binding; RNA-MaP array
- protocol_conditions: designed as: ON switch for flavin mononucleotide; no ligand
Cut-off 50 nM on apparent Kd, inclusive. At or above means T; below means F.

monomer_sequence	assigned_class
GUGAUACAUGAGGAUCACCCAUGUUAAGGUCUUGCAGGAUAUCCAGAACUCGAGAUAGAUGGAGAAGGGCAUGCAU	F
AGUGUAUACAAGAAGGAACAUGGACUAGGAUUGUUAGGAUAUUGCAUAAACAUGAGGAUCACCCAUGUGCGACACGCCCACAUC	F
UUUGUAUAGCAGAAGGCGUUAUUAGGAUGGCUACGAGGAUAUGCGGUACUCUAUUAGUACAUGAGGAUCACCCAUGUGUGGGCC	T

API: the following record is the query input.
Given "GUGUUACAUGAGGAUCACCCAUGUGUCUGAUGUCAAGGAUAUGACUCUUCCUUCACAAAGUCAGAAGGUGAUAUCA" , state whether its apparent Kd is at least 50 nM. T

###

- Test system: MS2 coat protein
- experiment: apparent Kd, MS2 coat protein; higher = weaker binding; RNA-MaP array
- protocol_conditions: designed as: ON switch for flavin mononucleotide; no ligand
// apparent Kd lookup, one value per entry
Give the figure together with its unit, number first.

Below, 2 sequences whose answers are already recorded.
monomer_sequence	recorded_measurement
AUAGUGCGGCUGAAGGAUAUGGAACCCGCGACAUGAGGAUCACCCAUGUACUUAAGCGACAUUUGCCAGAAGGUCAAGCAUUCCAU	0.0133 µM
CGGUCCACUGAGAAGGCUCACUCCAUGCCGAGGAGAGGAUAUCAAACCUAUAUUGCACGCAGCGAACAUGAGGAUCACCCAUGU	0.011 µM

From here, focus on the item given below.
Please report the recorded apparent Kd for "AAUGUACAUGAGGAUCACCCAUGUCGUCUACUUAGAGGAUAUGAUUGGUUACCCAGCUGAUCAGAAGGCUACCGUC" . 0.0141 µM

###

- Test system: MS2 coat protein
- experiment: apparent Kd, MS2 coat protein; higher = weaker binding; RNA-MaP array; FMN 200 µM where present
- protocol_conditions: ligand present: flavin mononucleotide; designed as: OFF switch for flavin mononucleotide
Mark false for apparent Kd values under 40 nM, and true for everything at or above.

monomer_sequence	assigned_class
GUGAGGUCAGGAUAUGCAUGGCGGGACUUGCGUCGUGGCGUGCAGAAGGGACAUGAGGAUCACCCAUGUGGAGU	true
UUUCUGUGAGGAUAUCAGUAGUAAAUAAAUAAAAUUACUACUGAGAAGGCACAUGAGGAUCACCCAUGUUCCUU	false
GUGGUAUUCGUAGGAUAUCCGUCGCCACCGUGUGGAGAAGGACGAACAUGAGGAUCACCCAUGUAUCAUGGUGUGGGCGUUGUC	true
UAGUAUAAGGGCAUUACACAUGAGGAUCACCCAUGUACGUUAGAGGAUAUGCAUUACAGUUGAAAGUAGAAGGUUAGAGAAGGG	true

Does apparent Kd meet or surpass 40 nM for "AAAGAGUCAGGAUAUUCGUAUAGAGUAGCGCGACUCUAUACGAAGAAGGGACAUGAGGAUCACCCAUGUAAAAA" ? true

Hi team, for "CCUCGACAUGAGGAUCACCCAUGUCAGGAUAUUGUGUCUCGGGUUUUUUACCGUUAGGCAAGAAGGGAUGUGUG" , is the recorded apparent Kd at or above 40 nM? false

Does the sequence "UUUUAACAUGAGGAUCACCCAUGUGAGGAUAUCGAAAUUUAUAUUAAUAUUAUUUAAACGAGAAGGCACAUUUU" have recorded apparent Kd that is 40 nM or more? true

Please tell me: is the sequence "CUGUGACGGUGCGCAAGUGGACGGAGAAGGCACACAUGAGGAUCACCCAUGUGAGCCUGCUAUUGUGAGGAUAUCCGUUCGUAC" at or over 40 nM in terms of apparent Kd? false

# check: apparent Kd of "AUAAGCUCGUCAGGAUAUACGUCACUGCUUCGGCAGUGAGGUAAGAUCACAUGAGGAUCACCCAUGUAGAAGGGACGAGCUUAU" is greater than or equal to 40 nM false

Is the recorded value of apparent Kd equal to or greater than 40 nM for this sequence? "AAAUUUAACGAAGGAUAUGCUGACAUGAGGAUCACCCAUGUGUGCCUUGUGUUACUGAUUAGGUUGCAGAAGGUCGUAUACAUA" true

Is apparent Kd for "UGCAUGGUAGGAUAUACGGAACAUUAGGGUUUGUUAUGUGGACAUGAGGAUCACCCAUGUAGAAGGGCCGUGCU" at or above 40 nM? true

Is the recorded value of apparent Kd equal to or greater than 40 nM for this sequence? "UCCGCCAAAGGAUAUACUGGGCGUUAAAAUCCUCUUAAAAGACAUGAGGAUCACCCAUGUAGAAGGUUGAGGAA" true

Threshold query (apparent Kd >= 40 nM) on "UACAGCCGCAUCCCAUCGCUGGAAGAGGAUAUACAUCAUCGCGCACUCACAUGAGGAUCACCCAUGUAGAAGGCUUCCUGGCGG" false

Identify whether the reported apparent Kd of the following sequence is 40 nM or greater: "GCGCGCUAAGGAUAUACAUGAGGAUCACCCAUGUUGCUCUGAUGAGCGGGUGUAAGCUGUAGAAGGUAGAGCAA" true

Item "AAAAUGUCAGGAUAUGCGAAGGCGUCUGACGGACGAGGAUUGCAGAAGGGACAUGAGGAUCACCCAUGUAAAAA" with apparent Kd of 40 nM or above? true

Is it the case that "GCACGGUAUGUAGGAUAUGCAUAGCAUUGCUAUGCAGAAGGACAUGAGGAUCACCCAUGUAUGUAUUCCAUACAAUUCCCGUGC" has apparent Kd reaching or exceeding 40 nM? false

Reported apparent Kd at or above 40 nM? "UAUAUAUAGUAAGGAUAUGUAAUAAUUUUAUAAACAGAAGGUACUGACAUGAGGAUCACCCAUGUUUUAGUGUGGGCAUGUAGA" true

Determine whether this sequence has apparent Kd no lower than 40 nM: "UUAGGACAUGAGGAUCACCCAUGUGAGGAUAUGCUGCAGGGAGGUCCCAGCAAUAUUCGUAGAAGGCAUAAGGG" true

Could you please find out whether "AAACCACAUGAGGAUCACCCAUGUGAGGAUAUGAUACUAUGUACUUCGGUACAUAGUAUCAGAAGGCAUAUGAA" has apparent Kd that meets 40 nM or exceeds it? false
